These data points were gathered from ChEMBL document CHEMBL5380869.

chromatographic logD reference
- test: Lipophilicity, CHI logD of compound at pH 7.4 by UPLC-TOF analysis
- Format: physicochemical
- conditions_used: buffer

| structure_notation | reported_measurement |
| --- | --- |
| COc1nn(C)cc1C(=O)N[S@@]1(=O)=NC(=O)c2ccc3c(c2)N(C[C@@H]2CCO[C@H]2[C@H](OC)/C(F)=C/C[C@H](C)C1)C[C@@]1(CCCc2cc(Cl)ccc21)CO3 | 2.9 |
| COc1nn(C)cc1C(=O)N[S@@]1(=O)=NC(=O)c2ccc3c(c2)N(C[C@@H]2CCO[C@H]2[C@](CN2CCN4CCOC[C@@H]4C2)(OC)/C(F)=C/C[C@H](C)C1)C[C@@]1(CCCc2cc(Cl)ccc21)CO3 | 3.1 |
| COc1nn(C)cc1C(=O)N[S@]1(=O)=NC(=O)c2ccc3c(c2)N(C[C@@H]2CCO[C@H]2[C@](CN2CCN4CCOC[C@@H]4C2)(OC)/C(F)=C/C[C@H](C)C1)C[C@@]1(CCCc2cc(Cl)ccc21)CO3 | 3 |
| COc1nn(C)cc1C(=O)N[S@]1(=O)=NC(=O)c2ccc3c(c2)N(C[C@@H]2CCO[C@H]2[C@H](OC)/C(F)=C/C[C@H](C)C1)C[C@@]1(CCCc2cc(Cl)ccc21)CO3 | 3.1 |
| COCCOCCn1nc(C)c2c1CSCc1cc(n(C)n1)CSc1cc(c3ccccc3c1)OCCCn1c(C(=O)O)c(C)c3c-2c(Cl)ccc31 | 2.4 |

The compound identified as "C[C@@H]1[C@@H](C)C/C=C(\F)[C@H](OCCN2CCOCC2)[C@@H]2OCC[C@H]2CN2C[C@@]3(CCCc4cc(Cl)ccc43)COc3ccc(cc32)C(=O)NS1(=O)=O" registered its chromatographic logD at 2.7

The compound identified as "COc1nn(C)cc1C(=O)N[S@@]1(=O)=NC(=O)c2ccc3c(c2)N(C[C@@H]2CC[C@H]2[C@@H](OC)/C=C/C[C@H](C)C1)C[C@@]1(CCCc2cc(Cl)ccc21)CO3" registered its chromatographic logD at 3.4

The compound identified as "COc1nn(C)cc1C(=O)N[S@]1(=O)=NC(=O)c2ccc3c(c2)N(C[C@@H]2CCO[C@H]2[C@@H](OC)/C(F)=C/C[C@H](C)C1)C[C@@]1(CCCc2cc(Cl)ccc21)CO3" registered its chromatographic logD at 3

The compound identified as "CO[C@H]1/C(F)=C/C[C@H](C)[C@@H](C)S(=O)(=O)NC(=O)c2cnc3c(n2)N(C[C@@H]2CCO[C@H]21)C[C@@]1(CCCc2cc(Cl)ccc21)CO3" registered its chromatographic logD at 2.8

====

- test: Thermodynamic (equilibrium) solubility of the compound measured after 3 days agitation in pH 2 buffer by LC-MS/MS analysis
- Type: physicochemical
- conditions_used: time 3 day, read-out: Therm_solubility
endpoint_name: solubility thermodynamic at 72 h

| compound | reported_measurement |
| --- | --- |
| COc1nn(C)cc1C(=O)N[S@]1(=O)=NC(=O)c2ccc3c(c2)N(C[C@@H]2CCO[C@H]2[C@@](CN2CCN4CCOC[C@@H]4C2)(OC)/C(F)=C/C[C@H](C)C1)C[C@@]1(CCCc2cc(Cl)ccc21)CO3 | 544 µM |
| COc1nn(C)cc1C(=O)N[S@@]1(=O)=NC(=O)c2ccc3c(c2)N(C[C@@H]2CC[C@H]2[C@@H](OC)/C=C/C[C@H](C)C1)C[C@@]1(CCCc2cc(Cl)ccc21)CO3 | < 0.1 µM |
| CO[C@H]1/C=C/C[C@H](C)[C@@H](C)S(=O)(=O)NC(=O)c2ccc3c(c2)N(C[C@@H]2CC[C@H]21)C[C@@]1(CCCc2cc(Cl)ccc21)CO3 [TAPOTOCLAX] | < 0.1 µM |
| COc1nn(C)cc1C(=O)N[S@@]1(=O)=NC(=O)c2ccc3c(c2)N(C[C@@H]2CCO[C@H]2[C@@H](OC)/C(F)=C/C[C@H](C)C1)C[C@@]1(CCCc2cc(Cl)ccc21)CO3 | < 0.1 µM |

The compound identified as CO[C@]1(CN2CCN3CCCC[C@@H]3C2)/C=C/C[C@H](C)[C@@H](C)S(=O)(=O)NC(=O)c2ccc3c(c2)N(C[C@@H]2CC[C@H]21)C[C@@]1(CCCc2cc(Cl)ccc21)CO3 [MURIZATOCLAX] registered its solubility thermodynamic at 72 h at 466 µM

The compound identified as "COc1nn(C)cc1C(=O)N[S@]1(=O)=NC(=O)c2ccc3c(c2)N(C[C@@H]2CCO[C@H]2[C@@H](OC)/C(F)=C/C[C@H](C)C1)C[C@@]1(CCCc2cc(Cl)ccc21)CO3" registered its solubility thermodynamic at 72 h at < 0.1 µM

====

microsomal CLint reference
- test: Intrinsic clearance in human liver microsomes measured upto 60 mins by LC-MS/MS analysis
- Assay type: ADME, Microsome
- conditions_used: read-out: CLH
Your answer should be a plain number; it is taken to be in µL/min/mg.

Reference set, count: 3
| compound | reported_measurement |
| --- | --- |
| Cc1c(-c2c(-c3ccc(F)o3)sc3ncnc(O[C@H](Cc4ccccc4OCc4ccnn4CC(F)(F)F)C(=O)O)c23)ccc(OCCN2CCN(C)CC2)c1Cl | 34 |
| COCCOCCn1nc(C)c2c1CSCc1cc(n(C)n1)CSc1cc(c3ccccc3c1)OCCCn1c(C(=O)O)c(C)c3c-2c(Cl)ccc31 | 81 |
| COc1nn(C)cc1C(=O)N[S@]1(=O)=NC(=O)c2ccc3c(c2)N(C[C@@H]2CCO[C@H]2[C@@H](OC)/C(F)=C/C[C@H](C)C1)C[C@@]1(CCCc2cc(Cl)ccc21)CO3 | 16 |

The compound identified as "CO[C@@]1(CN2CCN3CCOC[C@@H]3C2)/C(F)=C/C[C@H](C)[C@@H](C)S(=O)(=O)NC(=O)c2ccc3c(c2)N(C[C@@H]2CCO[C@H]21)C[C@@]1(CCCc2cc(Cl)ccc21)CO3" registered its microsomal CLint at 19

The compound identified as "C[C@@H]1[C@@H](C)C/C=C/[C@H](O)[C@@H]2OCC[C@H]2CN2C[C@@]3(CCCc4cc(Cl)ccc43)COc3ccc(cc32)C(=O)NS1(=O)=O" registered its microsomal CLint at 16

The compound identified as Cc1c2c(nn1C)CSCc1cc(n(C)n1)CSc1cc(c3ccccc3c1)OCCCc1c(C(=O)O)n(C)c3c-2c(Cl)ccc13 [AZD-5991] registered its microsomal CLint at 10

====

- test: Thermodynamic (equilibrium) solubility of the compound measured after 3 days agitation in pH 7 buffer by LC-MS/MS analysis
- Format: physicochemical
- conditions_used: time 3 day, read-out: Therm_solubility
endpoint_name: solubility thermodynamic at 72 h (µM)
Your answer should be a plain number; it is taken to be in µM.

| structure_notation | solubility thermodynamic at 72 h, µM |
| --- | --- |
| C[C@@H]1[C@@H](C)C/C=C/[C@H](O)[C@@H]2OCC[C@H]2CN2C[C@@]3(CCCc4cc(Cl)ccc43)COc3ccc(cc32)C(=O)NS1(=O)=O | 53 |
| COc1nn(C)cc1C(=O)N[S@@]1(=O)=NC(=O)c2ccc3c(c2)N(C[C@@H]2CCO[C@H]2[C@@](CN2CCN4CCOC[C@@H]4C2)(OC)/C(F)=C/C[C@H](C)C1)C[C@@]1(CCCc2cc(Cl)ccc21)CO3 | 561 |
| COc1nn(C)cc1C(=O)N[S@]1(=O)=NC(=O)c2ccc3c(c2)N(C[C@@H]2CCO[C@H]2[C@](CN2CCN4CCOC[C@@H]4C2)(OC)/C(F)=C/C[C@H](C)C1)C[C@@]1(CCCc2cc(Cl)ccc21)CO3 | 25 |
| Cc1c2c(nn1C)CSCc1cc(n(C)n1)CSc1cc(c3ccccc3c1)OCCCc1c(C(=O)O)n(C)c3c-2c(Cl)ccc13 | 1.5 |

Pending compound:
The compound identified as "CO[C@H]1/C(F)=C/C[C@H](C)[C@@H](C)S(=O)(=O)NC(=O)c2ccc3c(c2)N(C[C@@H]2CCO[C@H]21)C[C@@]1(CCCc2cc(Cl)ccc21)CO3" registered its solubility thermodynamic at 72 h at 8.3

====

- test: Thermodynamic (equilibrium) solubility of the compound measured after 3 days agitation in pH 7 buffer by LC-MS/MS analysis
- Assay type: physicochemical
- conditions_used: time 3 day, read-out: Therm_solubility
endpoint_name: solubility thermodynamic at 72 h

Reference set, count: 2
| molecule | solubility thermodynamic at 72 h |
| --- | --- |
| CO[C@]1(CN2CCN3CCCC[C@@H]3C2)/C=C/C[C@H](C)[C@@H](C)S(=O)(=O)NC(=O)c2ccc3c(c2)N(C[C@@H]2CC[C@H]21)C[C@@]1(CCCc2cc(Cl)ccc21)CO3 [MURIZATOCLAX] | < 0.1 µM |
| CO[C@H]1/C=C/C[C@H](C)[C@@H](C)S(=O)(=O)NC(=O)c2ccc3c(c2)N(C[C@@H]2CCO[C@H]21)C[C@@]1(CCCc2cc(Cl)ccc21)CO3 | < 0.1 µM |

The molecule identified as "Cc1c(-c2c(-c3ccc(F)o3)sc3ncnc(O[C@H](Cc4ccccc4OCc4ccnn4CC(F)(F)F)C(=O)O)c23)ccc(OCCN2CCN(C)CC2)c1Cl" registered its solubility thermodynamic at 72 h at < 5 µM
